Test: Proteolytic stability of compound in human plasma assessed as protease-mediated degradation by measuring compound remaining at 200 uM incubated for 30 mins by UHPLC analysis
Assay type: ADME, cell-free
Conditions: read-out: Stability
property.measured: remaining at 0.5 h, 200 µM

{"substance": "H-KYFTGSKDYRRYYS-OH", "property.measured": "remaining at 0.5 h, 200 µM", "result": "≤ 10%"}

Which remaining at 0.5 h, 200 µM reading was recorded for the substance H-KYFTGSKDWRSYYS-OH ?
≤ 10%

----------
Molecular target: 20S proteasome (Homo sapiens) (UniProt P49721+P20618+P28074+P28062+P28065+P28072+P25786+P25787+P25788+P25789+P28066+P60900+O14818+Q8TAA3+P40306+A5LHX3+P49720+P28070+Q99436)
Assay: Activation of human erythrocyte-derived 20S proteasome using Dabcyl-EDANS as FRET-type substrate at 1.0 to 50 uM measured every two mins for 60 mins by fluorescence based analysis
Format: cell-based
Conditions: filed as activator, dose 1-50 µM
Calls of active or inactive are those of the source. No cut-off for these calls is given here. Where a SMILES comes first, the peptide text is derived from it. [ ]: non-standard residue; d: D form. N(4-MeOBn)Gly = COc1ccc(CNCC(=O)O)cc1

{"compound": "COc1ccc(CN(CC(=O)N[C@@H](CCCNC(=N)N)C(=O)N[C@@H](CCCNC(=N)N)C(=O)N[C@@H](Cc2ccc(O)cc2)C(=O)N[C@@H](Cc2ccc(O)cc2)C(=O)N[C@@H](CO)C(=O)O)C(=O)[C@H](CC(=O)O)NC(=O)[C@H](CCCCN)NC(=O)[C@H](CO)NC(=O)CNC(=O)[C@@H](NC(=O)[C@H](Cc2ccccc2)NC(=O)[C@H](Cc2ccc(O)cc2)NC(=O)[C@@H](N)CCCCN)[C@@H](C)O)cc1 (H-KYFTGSKD[N(4-MeOBn)Gly]RRYYS-OH)", "Activity": "Active"}
{"compound": "COc1ccc(CN(CC(=O)N[C@@H](CCCNC(=N)N)C(=O)N[C@@H](CCCNC(=N)N)C(=O)N[C@@H](Cc2ccc(O)cc2)C(=O)N[C@@H](Cc2ccc(O)cc2)C(=O)N[C@@H](CO)C(=O)O)C(=O)[C@H](CC(=O)O)NC(=O)[C@H](CCCCN)NC(=O)[C@H](CO)NC(=O)CNC(=O)[C@@H](NC(=O)[C@H](Cc2ccccc2)NC(=O)CN(Cc2ccc(OC)cc2)C(=O)[C@@H](N)CCCCN)[C@@H](C)O)cc1 (H-K[N(4-MeOBn)Gly]FTGSKD[N(4-MeOBn)Gly]RRYYS-OH)", "Activity": "Active"}
